For each of the binders below, state its hCCL1 (100 nM) residual response, Protocol #2, mAb 0.08 µg/mL.
biological target: human CCR8 (human, UniProt P51685 1-355); assay: cell-based or functional assay
Numbers only, in %.

Binder	Assay value
3-76 (antibody, human IgG1, kappa, V domains shown, humanized, human IgG1 kappa) VH: EVQLVESGGGLVQPGRSLRLSCTASGFTFNTYAMNWVRQAPGKGLEWVARIRSKSNNYATYYAASVKGRFTISRDDSKSIAYLQMNSLKTEDTAVYYCVRGREAYYRYDGGYYAMDVWGQGTTVTVSS VL: DIVMTQAAPSLPVTPGESASISCRSSKSLLHSNGNTYLYWFLQKPGQSPQLLIYRMSNLASGVPDRFSGSGSGTAFTLKISRVEAEDVGVYYCMQHLEYPFTFGSGTKLEIKR	88

Switching to the query record.
I have this binder here, 3-82 (antibody, human IgG1, kappa, V domains shown, humanized, human IgG1 kappa) VH: QVQLVESGGGVVQPGRSLRLSCAASGFTFSNYRMHWVRQAPGKGLEWIAVIKVKSDNYGANYADSVKGRFTISRDNSKNTLYLQMNSLRAEDTAVYYCSSPTYPGSSGFAYWGQGTLVTVSS VL: DIQMTQSPSSLSASVGDRVTITCRASQDISNYLNWYQQKPDGTVKLLIYYTSRLHTGVPSRFSGSGSGTDYTLTISNLQQEDIATYFCQQGNKFPPTFGGGTKVEINR , and I need its recorded hCCL1 (100 nM) residual response, Protocol #2, mAb 0.08 µg/mL.
85

These data points were gathered from patent US20260234276A1.
